Where do the numbers come from? From the DeepSol protein solubility set.

assay: soluble on expression in E. coli; label from the status in PepcDB or PDB records
ENDPOINT: soluble on expression in E. coli

INSERT INTO measurements (chain, endpoint, result) VALUES
  ('GAMASLVVPNLMGNKDKADRQKVMSDLVALESTLDMYRLDNNRYPTTEQGLRALVSKPTVQPEPRNYRQDGYIRRLPQDPWGGDYQLLNPGQYSDIDIFSPGPDGVPNTEDDIGNWTLGNAQP', 'soluble on expression in E. coli', 'soluble'),
  ('MSLDISFQIQDAVASVIRAPLASPFRIATGQHDELENVFLKLTTRDGVSGYGEAAVASHITGETVPGTLANLQNAAAALRGQTVDDAESACRQFAAAFAGNHAGLAALEMALLDLSSRVRGIPFYRLFAPVAALEPRLAFSTDITVVIGSLDEARATAREFASRGFKAFKIKIGRDEQLDLARVLAVHEIAPDSQIILDANMGFSAGSMLAFLDRLAAKGVRPVLLEQPVPKMDWDGLSEITAALTGSETLVCADESVGSLADARRAIDSNAVSAINVKFMKSGILEGAEIARLAASRGIRLMLGAMMESALAVTASAHFAAGLACFDYLDMDTTFFLKGELAHSPYLDEHGRFDLHDAGPGIGVEPRFSEGHHHHHH', 'soluble on expression in E. coli', 'soluble');

---

test: soluble on expression in E. coli; label from the status in PepcDB or PDB records
ENDPOINT: soluble on expression in E. coli

# annotated cases, reported soluble on expression in E. coli shown
INSERT INTO assay_data (chain, endpoint, result) VALUES
  ('MSEYPILPSTLIPADPRFGCGPSKVRPAQLNAIVNAGADVIGTSHRQPAVKNIVGSIREGLSSLFSLPDGYEIVLSLGGATAFWDAATFGLIEKKSGHLTFGEFSGKFAKASAQAPWLDEPTIISAEPGDTPTPVAMEGCDVIAWAHNETSTGAMVPVIRPENSDGQLVAIDATSGAGGLPVDMHNADVYYFSPQKCFASDGGLWLAAMSPAALERIEKINASDRFIPAFLNLQTAVDNSRKNQTYNTPAVGTLLMLENQVEWMNANGGLDAMVERTTANSSALYEWAEKRAETTPYVTDPAKRSLVVGTIDFDDSIDAAALAKVLRANGILDVEPYRKLGRNQLRIGMFPAIDTADMDTLTAAIDYVLDNGFAQA', 'soluble on expression in E. coli', 'not soluble'),
  ('SLEKSGFIVHQKFDSILQLEDFDSLDRALKESESYYQKLPSNWKTQVRKTSYHKNQMLNSLKILKKILREKNPESRKIQFQNSFLLLETKDEALGRITAYYEVIIEGRFYPEGDFIYPVLETPSDLIVKKDGNKKSVGKIINEVFVPYETREELSHTSVWKKRSKAIVYVKIVDLHLAQLEGSAFVKVPDHIPFRITYSEDNGKEYQSPAESLKGICSSLIPSDLKSCILKYPKEVEMAILKNPRYIFFKLESSAPRGSGGIELIPKRSVAMDPGIPLGIPVLISFESSVLTEKNRIVFVHDRGSQITGHGRLDYFLGTGETAEYQAGKINTQGKIFLILPKIKN', 'soluble on expression in E. coli', 'not soluble'),
  ('MEFIPPKRMLELIKHYSTTFKNWYSVMLGIYLHRERIKCTLRNGQTLYLTPNEAVLLAGLRIIELDCNTVKFSFNGREITLRGWRLSDPGDSFSDYWRINVKGKRVLDIGAGVGDSSIYFSTMGAKEVVAVEIDKKKIELMRENLRTNGINNVIVVDKGVGTVDNENFISWERLIKDYGPFDDAKIDCDGCERLISPFIKEIPELLIEWDSDYKDVVKNLSKNGYKIRVEHTLKNLGFIYAKRE', 'soluble on expression in E. coli', 'soluble'),
  ('MYDVVVVGAGPAGSRYARQAASRGLDVVVFEQGEIGKPLACSGHVSTDIWEFTEDARDELFQNEISGARFHTGGPGSQDHPFYKDEVISNVIDRVGLDKHLAGLARDAGADVREAHSVVGVTEDRDGVTVEVRGDDGVETHRAKMVAGCDGPKSRVRRELDLPEPDELLHGVLGFSDEVDHGDFVDVHLTVPRFFAWRIPRGEAGVEYGLAVPPGDDARGRFEEFVDGYGVETDHRCSGLIPIGPPKRVTGRRSFLIGDAAAQTKPFTGGGIRYGMTAADHAAREIDPEDPATLGEYERAWRDDLRQEIRLGHAVRAGYSAPEPIQKAGMKAFEGEIGVHMDRPTTLFSREQLAALFSRSLEHHHHHH', 'soluble on expression in E. coli', 'soluble'),
  ('MSKTHPPELKKYMDKEMDLKLNGNRRVSGILRGFDPFMNMVIDEAVEYQKDGGSVNLGMTVIRGNSVVIMEPKERIS', 'soluble on expression in E. coli', 'not soluble');

API: the following record is the query input.
Exam item: Look up soluble on expression in E. coli: `MSKAKAPINTDELKQKYGRVYEIRIEGLEYENGEEAEFVFYFTRPKVSDISRFTKELNSKPDMAMKNLTFSCIVPEQEEELRQAAEEFPGLTFNTASRLMEIVGASAATSLKKL`
Marked response: soluble

---

experiment: soluble on expression in E. coli; label from the status in PepcDB or PDB records
ENDPOINT: soluble on expression in E. coli

INSERT INTO measurements (chain, endpoint, result) VALUES
  ('MAAMFSNTRSVASSSGHIVEFKAGRSRLEAGSGDTMRKVVAEPKKGLVFIKQSNDMLIHFCWKDRETGAVVDDLIIFPDDAEFKAVPGCPDGKVYMLKFKSGDMKLFWIQDSTPDVDKDLVKKVTDALNKPPTSRPAASRSAGSNANTDRQSAGGSLISSSDMNAPLGGIDQGQLMSLIQSLQGGNSDTLPISSVPRGEDASSEADCEPSTNAAEEGSSNPLSLNNPAIQQIFNNLGRSQKKEVAVSLATALSNETVAEVARNHAEELAPHLPTSDDPARELSETVRTPQFRQAADTLGHALQTGQLGPVVAQFGMDEATVGSANQGDIRGFAANLTKAEGGEDAAKTQNSDDDATREPEPKRNRPDNEDMDVD', 'soluble on expression in E. coli', 'not soluble'),
  ('GPGSTRCQRERLLYVRRFDPVRGYHLRAAEDISVGTIIFQDECRPVRLCTKPYALQHFSKADYVDFQHNAWPVGRDGHYYALWDHDPAQWRAFNHSCEPNMSFAPMRSLDVVALRNIPKGEELTMDYRQFMDSTMPGFQCNCGTEKCEGFVSPGSLVDSPTAKIASQPTVALRHNIAVRLNPI', 'soluble on expression in E. coli', 'not soluble');

---

assay: soluble on expression in E. coli; label from the status in PepcDB or PDB records
ENDPOINT: soluble on expression in E. coli

In the examples that follow, each entry is paired with its recorded soluble on expression in E. coli.
INSERT INTO results (chain, result) VALUES
  ('MWWREKLFDGLRALELTKKTLKNKKERESMNQEELDKKLKKQEILVKDEKVWSYTYEDHISSIVKEAEKKGSFDHLPGKGKPLNLDKDLSYNPEKQLYRTLKNNHVLPRWIELSKEIDDLKEKLKENTNTAETADLIRTINKKVLEHNLLCPPSAQKTRVKTDFLEHHHHHH', 'soluble'),
  ('MNSNANNTPIAIGISQVFPCSYLDGQQEQLLVIQEETLDPILFERLLAIGFRRSGSAIYKPRCPRCSACQPIRVPIQEFVPSKRQKRTLAHNRDLTWRITTEHTETQYALYEKYIRERHFDGPMYPPSKAQYEQFLFCHWLPPTFIEVYDDNRLVAVAVTDTLPNSFSAIYSYFDPDEERRSLGVLLILLQCRLAKLQGKAFLYLGYQIDANRKMSYKRLYRPYQILTHQGWEYSQVCLEHHHHHH', 'not soluble'),
  ('MSLSVNSRILWVDLENSPHVPFFKPIIEELEKHGYRVVITARDCFQVCGLADLYGLPYTRIGRHYGKHKALKVVGAVIRALQMRNTLARPLPSLAIAHGSRSQLLAAKILHIPALQLADYEFSNKMPSFLSSDWIMVPETIPAGLHWRNTSRISTYPGIKEDVYVPTFKPQTGILSELGILEKEIVVTIRPPASEAHYHNPKSDDLFYATVNWLSGIDNLRMVVLPRNSSQAAHIGKTWPALIGEAKMVIPDRVLDGLNLIWHSDLVISGGGTMNREAAALGVPVYSIFKGEIGAVDKYLASTGRLTLLETADDITNKVLIQKWERPSSPDHNPRPALKVIVDKILELVEGHHHHHH', 'not soluble'),
  ('MSSFVPNKEQTRTVLIFCFHLKKTAAESHRMLVEAFGEQVPTVKTCERWFQRFKSGDFDVDDKEHGKPPKRYEDAELQALLDEDDAQTQKQLAEQLEVSQQAVSNRLREMGKIQKVGRWVPHELNERQMERRKNTCEILLSRYKRKSFLHRIVTGDEKWIFFVNPKRKKSYVDPGQPATSTARPNRFGKKTMLCVWWDQSGVIYYELLKPGETVNAARYQQQLINLNRALQRKRPEYQKRQHRVIFLHDNAPSHTARAVRDTLETLNWEVLPHAAYSPDLAPSDYHLFASMGHALAEQRFDSYESVKKWLDEWFAAKDDEFYWRGIHKLPERWEKCVASDGKYFE', 'soluble'),
  ('GPGSMRYRLRLDAFAPAGSLPCCRILTQVRNLNMNRSVQTRWESDNQVASQKRTDYDFDKEQWSKQMRFASMDCVMDPDITPIKYTSVTGLKKVLRRFMTMRKLIDRRPDFKTDDLKKLFIQLKTISHSRSLEDLKVLQRLTTHGEASRISKEIKTRMNDEFAKKSWKSLKMQEVSNTYQIELDSFQLVNCYMGQMSKEDWLQITYKCEFRERKGDNEEWQSVCEYPVFEVRLGDGVQSPNTHHFIIVGIMRKDGTRYGKDAQDAASLRKQFDRSRKWF', 'not soluble');

Exam item: soluble on expression in E. coli lookup needed for `VTNVSWLVTGSMSALSIPGLIFSLRSSHPNLNFTPYLTQSASRIVTMTSMATLSGVTPRNSDWGSEPEATPSHIQIESESDAYLIAPATLDFLARFARYDCSTPFSLALQCTKKPILVAPS` , thanks.
Marked response: not soluble

Exam item: // query soluble on expression in E. coli value for entry `MGSDKIHHHHHHMIKVLHLFTTLDSGGVESFLFNYYSHIDRKKIQFDFIVPGKEQGFLEDKMKELGAKVYHVPLLRKKPLHQFLSLARIIKKGDYDIVHCHGYKSAIGLILSKIIGCKIRIIHSHMAYVTENSFQKVLRKLVTILVKILATHWFACGEDSAKWLYGEKAYKDGKIEIIFNAIDLKKYQFLSDVREKCRRELDVSNKFVLGNIARLSDQKNQSYLFNVLKELILIKPNVILLLVGNGEDEQKLKQKALELNLTPYVLFLGRRTDISDLLSAMDVFLLPSKYEGLPVSLVEAQASGLQILSSDTVTQEVDVTKNISYLPINEESVLLWKDKVLSLTSEECNRFEINNSMTDGLYDICYQASKLLNRYQEMCVIKEI`
Marked response: not soluble

Exam item: Given the sequence `MEMEHINENTIRVLIGNEDLADRGITFLDLLGNHKDVENFFYSILEEVDVEDEFQGSEAVTFQVLPKNDGLELFISKNVAMDDLSSLEGLSEVNADVSELIRKQIEADKAAADELDEMEATDETNRNVIFELDNFEAMIQLSKEVFMQSVLTNLYTYNDRYYLQVLFLTDELEKTNVDNEIAQILEFAHKTTVTQDTLVEYGTCIMERSALELTRYYFND` , what is its reported soluble on expression in E. coli?
Marked response: not soluble

Exam item: Name the reported soluble on expression in E. coli value associated with the sequence `MLEVLVALAIFATAAISVIRSVSQHINTVSYLEEKMFAAMVVDNQMANVMLDTGALKAKNGTEELAGRTWYWKVTPVATTQPLLKAFDVSVATAKNASPVVTVRSYVAQ`
Marked response: not soluble

Exam item: Requested read-out: soluble on expression in E. coli. Entry: `MLTLSPPPAYLVTAANPAPSVAAAAPRALVFGGSGQIGERLLTRLLGRGWQVTAWSRAPRAARAGLIWRQGDLAAPAVAGESFEVIFSCGPLDHFAHWYETNAVSTPRIVAFGSTSVEVKEHSIDAAERDVAQRLANAEQALFSAAKARGAAATVLRPTLVYGAGRDRTLTQIAGLARRTGAFVLPANATGLRQPVHVDDLASAALAVVTQPATHQRSYAVGGGEVLAYTQMVERVLEALPRPARLYQVPPSLFGLALTTAQRLGRLRSLNTAALQRMRDDLVFDLEPARRDFGYAPRAFRPLPEELGIGELEHHHHHH`
Marked response: not soluble

Exam item: // query soluble on expression in E. coli value for entry `MLLAYSMKVVYHLFSGGKDSSLAAWILKKLGYEVKLITITFGVLDNWKFARETAEILGFDHEVIEMPIGILEKATEMCIKEGRAGNAIQYIHERALEYIASREEVKRISDGTRRDDRVPFLDLSKARSLEDRYNVAYIRPLLGLGYKTIRELVNEIFVVVEDESEKVQKGDYETELRELIRRKGHDPSQIFPKRHVQSRVVGLR`
Marked response: not soluble
